Taken from paper PMC6342617.

- METHOD_NOTES: Tivantinib steady-state plasma pharmacokinetics
- Assay type: in vivo, human
- DETAILS: human, plasma, oral, AUC0–12 hr, median, All Dose Levels, n=12
METRIC: AUC(0-t) (ng·h/mL)
Answers are plain numbers, in ng·h/mL.

Name the recorded AUC(0-t) of the item O=C1NC(=O)[C@@H](c2cn3c4c(cccc24)CCC3)[C@@H]1c1c[nH]c2ccccc12 [tivantinib] in your answer.
10500
